test: basal HepG2 mitochondrial membrane potential changes, profiling panel, cell-based, JC-1 fluorescence, 24 h, 100 nL compound (AID 1167); details: higher = more signal; further: test concentration not given here
outcome_measure: z-score

Sample answers from the record:
molecule | z-score
COC(=O)[C@@]1(Cc2ccc(OC)cc2)[C@@H]2[C@@H](CC(=O)[C@H]2CC(=O)C(=O)N2CCCC2)CN1C(=O)c1ccccc1 | 0.74
C=CCN1C(=O)[C@]2(O[C@H](CCO)[C@@H]([Si](C)(C)c3ccc(OC)cc3)[C@@H]2C)c2ccccc21 | -3.42
C=CCC(OC(C)=O)[C@@H]1[C@@H](N(Cc2ccc(-c3ccccc3)cc2)C(=O)c2cccc3ccccc23)c2cc(OCCCO)ccc2N1C(=O)c1ccc2ccccc2c1 (stereo not given in full) | 1.91

Batch of 7 molecules: report z-score for each.
1. COC(=O)[C@@]1(Cc2ccccc2CN=[N+]=[N-])COC(c2ccc(OCCCO)cc2)=N1
2. C/C=C/CN(C(=O)C#Cc1ccccc1)[C@H](CO[Si](C)(C)C(C)(C)C)c1ccccc1
3. C=C(COC)C(=O)CC[C@@H](OC(=O)c1cccnc1)c1cccc(OCCO)c1
4. Cc1ccc(S[C@]2(C(=O)NCCCN(C)C)CC(=O)N(Cc3ccccc3Cl)[C@@H]2c2ccc(CO)cc2I)cc1
5. CCCC=C(CCC)[C@@H](NC(=O)c1ccccc1)c1ccc(C(=O)OC)cc1
6. CCCCCCCCCCC(O)C1C=CC2C(=O)N(C)C(=O)C2N1N1CCCCC1 (stereo not given)
7. CN1C(=O)[C@]2(CCC(=O)OC(C)(C)C)N=C(c3ccc(OCCCO)cc3)O[C@@H]2c2ccccc21

Result block:
1: -2.15; 2: 2.31; 3: 0.082; 4: 1.25; 5: -1.59; 6: -0.235; 7: 1.29

Lab note: each molecule below needs its z-score filled in.
1. CCCCC(O)C1C=CC2C(=O)N(C)C(=O)C2N1Nc1ccccc1 (stereo not given)
2. CCCC[C@@H](O)C1=C(COC)Cn2c(=O)n(-c3ccccc3)c(=O)n2[C@H]1CO
3. COC(=O)[C@@]1(CCS(=O)(=O)c2ccccc2)N=C(c2ccc(OCCCO)cc2)O[C@H]1c1ccccc1N=[N+]=[N-]
4. CCOC(=O)C1=CC[C@@H](c2ccccc2)N(S(=O)(=O)c2ccc(C)cc2)[C@H]1C#N

Result block:
-1.73
0.376
0.335
-0.858
